Where these numbers come from: paper PMC10044445

System: E. coli biofilms
ASSAY_OVERVIEW: Disruption of established biofilm, crystal violet staining
Format: cell-based
ASSAY_CONTEXT: 1× to 8× MIC, 24 h treatment
READOUT_TYPE: disruption of established E. coli biofilm (in words)

NCCCC[C@H](N)C(=O)NCCNC(=O)[C@H](Cc1c[nH]c2ccccc12)NC(=O)c1cc(Br)ccc1NC(=O)c1ccc2ccccc2c1 [Compound 19a] : not effective
COc1cc2ccccc2cc1C(=O)Nc1ccc(Br)cc1C(=O)N[C@@H](Cc1c[nH]c2ccccc12)C(=O)NCCCN [Compound 13d] : significant disruption
NCCNC(=O)[C@H](Cc1c[nH]c2ccccc12)NC(=O)c1cc(-c2ccc3ccccc3c2)ccc1N [Compound 16b] : not effective
NCCCC[C@H](N)C(=O)NCCNC(=O)[C@H](Cc1c[nH]c2ccccc12)NC(=O)c1cc(Br)ccc1NC(=O)c1cccc(-c2ccccc2)c1 [Compound 19b] : significant disruption
